targetOrTestSystem: human ether-à-go-go-related gene (hERG) potassium channel (human);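 further: peak tail current of the secondary pulse compared with the same well before compound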
Sequence (Q12809 whole entry, looked up): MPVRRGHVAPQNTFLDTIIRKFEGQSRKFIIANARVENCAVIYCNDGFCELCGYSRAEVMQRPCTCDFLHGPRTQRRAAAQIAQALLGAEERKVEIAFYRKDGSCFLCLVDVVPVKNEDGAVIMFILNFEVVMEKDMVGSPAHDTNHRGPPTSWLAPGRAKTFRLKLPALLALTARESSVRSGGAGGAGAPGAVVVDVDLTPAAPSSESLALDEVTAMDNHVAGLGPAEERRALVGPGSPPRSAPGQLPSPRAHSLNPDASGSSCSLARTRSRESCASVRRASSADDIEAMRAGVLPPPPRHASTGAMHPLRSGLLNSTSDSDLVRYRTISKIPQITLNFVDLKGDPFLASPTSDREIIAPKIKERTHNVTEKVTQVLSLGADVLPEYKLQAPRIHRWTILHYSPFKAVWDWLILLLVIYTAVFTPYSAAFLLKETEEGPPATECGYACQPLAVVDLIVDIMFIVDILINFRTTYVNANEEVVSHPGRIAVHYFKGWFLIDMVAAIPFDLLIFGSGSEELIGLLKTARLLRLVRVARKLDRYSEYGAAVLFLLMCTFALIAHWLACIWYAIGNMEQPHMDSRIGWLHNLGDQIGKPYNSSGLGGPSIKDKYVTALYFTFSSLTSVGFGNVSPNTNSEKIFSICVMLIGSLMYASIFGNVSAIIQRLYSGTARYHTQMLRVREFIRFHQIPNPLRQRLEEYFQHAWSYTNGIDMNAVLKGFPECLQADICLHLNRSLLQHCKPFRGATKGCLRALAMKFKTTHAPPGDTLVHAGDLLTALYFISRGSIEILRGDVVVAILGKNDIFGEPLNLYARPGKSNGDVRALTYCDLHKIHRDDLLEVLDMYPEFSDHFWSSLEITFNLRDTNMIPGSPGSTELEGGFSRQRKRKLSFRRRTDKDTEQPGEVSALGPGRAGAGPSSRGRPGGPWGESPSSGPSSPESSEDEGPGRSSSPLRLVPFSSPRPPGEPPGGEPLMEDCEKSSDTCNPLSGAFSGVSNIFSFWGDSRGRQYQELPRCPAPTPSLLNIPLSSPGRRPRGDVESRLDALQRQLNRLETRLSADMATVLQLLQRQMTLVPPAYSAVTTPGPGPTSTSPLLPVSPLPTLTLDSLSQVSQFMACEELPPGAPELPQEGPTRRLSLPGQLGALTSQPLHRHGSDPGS
assay: primary screen, population patch clamp on CHO cells stably expressing hERG; higher = less effect of the substance
Hit rate of the full screen: of about 310,000 compounds, about 14,000 (4.5%) showed an effect of 50% or more. Effects have a minus sign here. The sample holds strong results, similar compounds and a random draw of the others, so the mix is not that of the screen.
Hi there, I'd appreciate the recorded hERG current change (%, negative = inhibition) at 10uM for every entry that follows.
The response must be a number in % with no trailing unit.

Asked: Identify hERG current change (%, negative = inhibition) at 10uM associated with the molecule `CCOC(=O)N1CCC(NC(=O)c2oc3c(F)cccc3c2C)CC1`
Given back: -15.4

Asked: Identify hERG current change (%, negative = inhibition) at 10uM associated with the molecule `COc1ccc(NC(=S)N2CCN(c3ccccn3)CC2)cc1`
Given back: -0.967

Asked: Identify hERG current change (%, negative = inhibition) at 10uM associated with the molecule `Cl.O=C(CCCN1CCC(O)(c2cccc(C(F)(F)F)c2)CC1)c1ccc(F)cc1`
Given back: -75.6

Asked: Identify hERG current change (%, negative = inhibition) at 10uM associated with the molecule Cc1c(C(=O)NC2CCN(Cc3ccccc3)C2)oc2ccc(Br)cc12 (centres unmarked)
Given back: -61.8

Asked: Identify hERG current change (%, negative = inhibition) at 10uM associated with the molecule CC(C)CC(c1nnnn1CCc1ccccc1)N1CCN(C(=O)c2ccco2)CC1 (centres unmarked)
Given back: -46.6

Asked: Identify hERG current change (%, negative = inhibition) at 10uM associated with the molecule `CCOC(=O)C1CCN(C(=O)COc2ccc(Br)cc2Br)CC1`
Given back: -51.8

Asked: Identify hERG current change (%, negative = inhibition) at 10uM associated with the molecule CCOc1ccc(C(c2nnnn2Cc2ccccc2)N2CCN(C(=O)c3ccco3)CC2)cc1.Cl (centres unmarked)
Given back: -57

Asked: Identify hERG current change (%, negative = inhibition) at 10uM associated with the molecule `CCOC(=O)C1CCN(C(=O)COc2cc(C)c(Br)c(C)c2)CC1`
Given back: -43.2

Asked: Identify hERG current change (%, negative = inhibition) at 10uM associated with the molecule `CCOc1ccc2oc(C(=O)NC3CCN(Cc4ccccc4)CC3)c(C)c2c1.Cl`
Given back: -15.1

Asked: Identify hERG current change (%, negative = inhibition) at 10uM associated with the molecule CC(C)CC(c1nnnn1Cc1ccccc1)N1CCN(C(=O)c2ccco2)CC1 (centres unmarked)
Given back: -63.4

Asked: Identify hERG current change (%, negative = inhibition) at 10uM associated with the molecule `CCOC(=O)C1CCN(C(=O)COc2ccc(Cl)cc2C)CC1`
Given back: -46.1

Asked: Identify hERG current change (%, negative = inhibition) at 10uM associated with the molecule O=C(c1ccco1)N1CCN(C(c2ccc(Cl)cc2)c2nnnn2Cc2ccccc2)CC1 (centres unmarked)
Given back: -68.2

Asked: Identify hERG current change (%, negative = inhibition) at 10uM associated with the molecule `C=CCNC(=O)CN1CCC(O)(c2ccc(F)cc2)CC1`
Given back: -5.8

Asked: Identify hERG current change (%, negative = inhibition) at 10uM associated with the molecule O=C(c1ccco1)N1CCN(C(c2ccc(Cl)cc2)c2nnnn2CC2CCCO2)CC1 (centres unmarked)
Given back: -22.1

Asked: Identify hERG current change (%, negative = inhibition) at 10uM associated with the molecule `O=C(NC1CCN(Cc2ccccc2)CC1)c1c(Cl)cccc1Cl`
Given back: -10.7

Asked: Identify hERG current change (%, negative = inhibition) at 10uM associated with the molecule `O=C(CCCN1CCC(O)(c2ccc(Br)cc2)CC1)c1ccc(F)cc1`
Given back: -79.7

Asked: Identify hERG current change (%, negative = inhibition) at 10uM associated with the molecule COCCn1nnnc1C(c1ccccc1)N1CCN(C(=O)c2ccco2)CC1.Cl (centres unmarked)
Given back: 16.7

Asked: Identify hERG current change (%, negative = inhibition) at 10uM associated with the molecule Cc1nc2sc(C(c3cccs3)N3CCN(c4ccccc4)CC3)c(O)n2n1 (centres unmarked)
Given back: -9.85

Asked: Identify hERG current change (%, negative = inhibition) at 10uM associated with the molecule `CCOC(=O)C1CCN(C(=O)COc2ccc(Br)cc2C)CC1`
Given back: -19.3

Asked: Identify hERG current change (%, negative = inhibition) at 10uM associated with the molecule `O=C(CN1CCC(O)(c2ccc(F)cc2)CC1)NCc1ccc(F)cc1`
Given back: -34.2
